Tested on: M. tuberculosis
ASSAY_DETAILS: Influence of pH on MICs (Table 5)
Type: cell-based, Mycobacterium tuberculosis
Design: unit not given beside the values
ASSAY_CONDITIONS: ATCC 35828 (PZA resistant), pH 6.8
MEASUREMENT_NAME: MIC, ATCC 35828 pH 6.8
Just the number, please, no unit attached.

Asked: Enter recorded MIC, ATCC 35828 pH 6.8 with M. tuberculosis for CCN(CC)CNC(=O)c1cnccn1 [Compound 2] here.
Given back: 100

Asked: Enter recorded MIC, ATCC 35828 pH 6.8 with M. tuberculosis for O=C(NCN1CCOCC1)c1cnccn1 [MZA, morphazinamide] here.
Given back: 100

Asked: Enter recorded MIC, ATCC 35828 pH 6.8 with M. tuberculosis for O=C(NCN1CCCC1)c1cnccn1 [Compound 1] here.
Given back: 100
